Give AC50 for every item shown.
# test-system: Alpha-2A adrenergic receptor (Homo sapiens); further: assay procedure not described here
# Sequence (P08913 whole entry): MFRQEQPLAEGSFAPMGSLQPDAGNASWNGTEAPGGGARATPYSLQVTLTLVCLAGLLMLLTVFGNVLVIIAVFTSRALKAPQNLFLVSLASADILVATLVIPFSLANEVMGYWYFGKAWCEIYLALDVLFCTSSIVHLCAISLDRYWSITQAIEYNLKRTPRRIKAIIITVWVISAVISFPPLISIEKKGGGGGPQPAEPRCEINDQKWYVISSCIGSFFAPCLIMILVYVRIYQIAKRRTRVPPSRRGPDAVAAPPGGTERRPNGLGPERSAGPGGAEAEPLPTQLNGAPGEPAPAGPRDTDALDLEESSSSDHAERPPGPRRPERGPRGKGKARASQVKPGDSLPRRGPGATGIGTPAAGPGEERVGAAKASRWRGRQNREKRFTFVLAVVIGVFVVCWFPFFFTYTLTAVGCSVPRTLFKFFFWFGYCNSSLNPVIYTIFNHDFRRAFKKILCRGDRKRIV
# Format: functional, cell-based

Reported AC50 of COc1ccc2c(c1)C(=O)N(CCc1ccc(S(=O)(=O)NC(=O)NC3CCCCC3)cc1)C(=O)C2(C)C [GLIQUIDONE] : > 30 µM

Lab note: O=C1CN=C(c2ccccc2)c2cc(Cl)ccc2N1CC(F)(F)F [HALAZEPAM] gave AC50 of > 30 µM

Looking up CCCCCCCCCCCC[N+](C)(C)CCOc1ccccc1 [DOMIPHEN] , I found its AC50 recorded as 13 µM

Record summary for NC(N)=Nc1nc(CSCCC(N)=NS(N)(=O)=O)cs1 [FAMOTIDINE] : reported AC50 = > 10 µM

The recorded AC50 for entry CC(C)(Oc1ccc(C2CC2(Cl)Cl)cc1)C(=O)O (stereo not given) [CIPROFIBRATE] equals > 30 µM
